FYI, the data here is from paper PMC4109680.

- experiment.description: Plasma exposure in rat 4-day oral dosing experiment
- Type: in vivo
- stated.conditions: female, rat, plasma, po, 100 mg/kg, Female, Day 3
measured.parameter: Cmax (µM)

COc1cc(Nc2nc3n(n2)CCCC[C@H]3c2ccc(F)cc2)ccc1-n1cnc(Cl)c1 [BMS-869780] ... 15.5

----------
- experiment.description: Pharmacokinetics in male Sprague-Dawley rats
- Assay type: in vivo
- stated.conditions: plasma, Rat, PO suspension 5 mg/kg
- Description: Male Sprague-Dawley (SD) rats (300–350 g) were fasted overnight, and three per group received BMS-869780 either as an intravenous (IV) infusion in PEG400 : ethanol (90 : 10 w/w) at 1 mg/kg over 5 min via the jugular vein or as nanosuspension (d50 ca. 300 nm) by oral gavage at 5 mg/kg in Povidone K-30 : sodium lauryl sulfate : water (2.5 : 0.12 : 97.38 w/w/w/w). […] In male beagle dogs, the PK of BMS-869780 was evaluated in a cross-over study design with a one-week washout between treatments. […]
measured.parameter: Cmax (nM)

COc1cc(Nc2nc3n(n2)CCCC[C@H]3c2ccc(F)cc2)ccc1-n1cnc(Cl)c1 ... 674

----------
- experiment.description: Plasma exposure in rat 4-day oral dosing experiment
- Format: in vivo
- stated.conditions: rat, plasma, oral; 30 mg/kg, Female; read-out: Terminal concentration day 4
- Text: All experimental procedures with animals followed National Institutes of Health guidelines and were authorized by and in compliance with policies of the Bristol-Myers Squibb Animal Use and Care Committee. Mice and rats were housed with a 6:00 AM to 6:00 PM light/dark cycle and allowed free access to food and water. […]
measured.parameter: concentration at 4 day (µM)

COc1cc(Nc2nc3n(n2)CCCC[C@H]3c2ccc(F)cc2)ccc1-n1cnc(Cl)c1 ... 12

----------
- experiment.description: Plasma exposure in rat 4-day oral dosing experiment
- Assay type: in vivo
- stated.conditions: female, rat, plasma, po, 10 mg/kg, Female, Day 1
measured.parameter: Tmax (h)

COc1cc(Nc2nc3n(n2)CCCC[C@H]3c2ccc(F)cc2)ccc1-n1cnc(Cl)c1 ... 7

----------
- experiment.description: Pharmacokinetics in male Sprague-Dawley rats
- Assay type: in vivo
- stated.conditions: plasma, Rat, PO suspension 5 mg/kg
measured.parameter: bioavailability

COc1cc(Nc2nc3n(n2)CCCC[C@H]3c2ccc(F)cc2)ccc1-n1cnc(Cl)c1 ... 54%

----------
- experiment.description: Plasma exposure in rat 4-day oral dosing experiment
- Type: in vivo
- stated.conditions: male, rat, plasma, po, 30 mg/kg, Male, Day 1; read-out: AUC (0–24 h)
measured.parameter: AUC(0-t) (µM·h)

COc1cc(Nc2nc3n(n2)CCCC[C@H]3c2ccc(F)cc2)ccc1-n1cnc(Cl)c1 ... 95.2

----------
- experiment.description: Plasma exposure in rat 4-day oral dosing experiment
- Format: in vivo
- stated.conditions: male, rat, plasma, po, 10 mg/kg, Male, Day 1
measured.parameter: Cmax (nM)

COc1cc(Nc2nc3n(n2)CCCC[C@H]3c2ccc(F)cc2)ccc1-n1cnc(Cl)c1 ... 2000

----------
- experiment.description: Rat time course PK/PD, oral dose, indirect response model
- Format: in vivo
- stated.conditions: female, Sprague-Dawley, plasma; Rat 10 mg/kg PO solution (observed 0–24 hours)
measured.parameter: AUC(0-t)

COc1cc(Nc2nc3n(n2)CCCC[C@H]3c2ccc(F)cc2)ccc1-n1cnc(Cl)c1 ... 46.3 µM·h

----------
- experiment.description: Pharmacokinetics in male Sprague-Dawley rats
- Format: in vivo
- stated.conditions: plasma, Rat, IV 1 mg/kg
measured.parameter: AUC(0-t) (nM·h)

COc1cc(Nc2nc3n(n2)CCCC[C@H]3c2ccc(F)cc2)ccc1-n1cnc(Cl)c1 ... 1480

----------
- experiment.description: Pharmacokinetics in male beagle dogs
- Format: in vivo
- stated.conditions: plasma, Dog, PO suspension 5 mg/kg
measured.parameter: Cmax

COc1cc(Nc2nc3n(n2)CCCC[C@H]3c2ccc(F)cc2)ccc1-n1cnc(Cl)c1 ... 487 nM

----------
- experiment.description: Plasma exposure in rat 4-day oral dosing experiment
- Format: in vivo
- stated.conditions: female, rat, plasma, po, 10 mg/kg, Female, Day 3; read-out: AUC (0–24 h)
measured.parameter: AUC(0-t) (µM·h)

COc1cc(Nc2nc3n(n2)CCCC[C@H]3c2ccc(F)cc2)ccc1-n1cnc(Cl)c1 [BMS-869780] ... 25

----------
- experiment.description: Pharmacokinetics in male cynomolgus monkeys
- Format: in vivo
- stated.conditions: cynomolgus monkey, plasma, IV 1 mg/kg
measured.parameter: clearance

COc1cc(Nc2nc3n(n2)CCCC[C@H]3c2ccc(F)cc2)ccc1-n1cnc(Cl)c1 [BMS-869780] ... 15.2 mL/min/kg

----------
- experiment.description: Pharmacokinetics in male beagle dogs
- Assay type: in vivo
- stated.conditions: plasma, Dog, PO suspension 5 mg/kg
measured.parameter: bioavailability (%)

COc1cc(Nc2nc3n(n2)CCCC[C@H]3c2ccc(F)cc2)ccc1-n1cnc(Cl)c1 ... 13

----------
- experiment.description: Pharmacokinetics in male beagle dogs
- Assay type: in vivo
- stated.conditions: plasma, Dog, IV 1 mg/kg
measured.parameter: MRT (h)

COc1cc(Nc2nc3n(n2)CCCC[C@H]3c2ccc(F)cc2)ccc1-n1cnc(Cl)c1 ... 6.6

----------
- Tested on: brain Aβ1-42
- experiment.description: Rat time course PK/PD, oral dose, indirect response model
- Assay type: in vivo
- stated.conditions: Rattus norvegicus, po; read-out: in vivo plasma IC50 for brain Aβ1-42
measured.parameter: IC50 (µM)

COc1cc(Nc2nc3n(n2)CCCC[C@H]3c2ccc(F)cc2)ccc1-n1cnc(Cl)c1 [BMS-869780] ... 1.9

----------
- experiment.description: Plasma exposure in rat 4-day oral dosing experiment
- Type: in vivo
- stated.conditions: rat, plasma, oral; 30 mg/kg, Male; read-out: Terminal concentration day 4
measured.parameter: concentration at 4 day (µM)

COc1cc(Nc2nc3n(n2)CCCC[C@H]3c2ccc(F)cc2)ccc1-n1cnc(Cl)c1 [BMS-869780] ... 8.9

----------
- experiment.description: Pharmacokinetics in male beagle dogs
- Assay type: in vivo
- stated.conditions: plasma, Dog, IV 1 mg/kg
- Experimental: Male Sprague-Dawley (SD) rats (300–350 g) were fasted overnight, and three per group received BMS-869780 either as an intravenous (IV) infusion in PEG400 : ethanol (90 : 10 w/w) at 1 mg/kg over 5 min via the jugular vein or as nanosuspension (d50 ca. 300 nm) by oral gavage at 5 mg/kg in Povidone K-30 : sodium lauryl sulfate : water (2.5 : 0.12 : 97.38 w/w/w/w). […] In male beagle dogs, the PK of BMS-869780 was evaluated in a cross-over study design with a one-week washout between treatments. […]
measured.parameter: AUC(0-t) (µM·h)

COc1cc(Nc2nc3n(n2)CCCC[C@H]3c2ccc(F)cc2)ccc1-n1cnc(Cl)c1 ... 6.64

----------
- Tested on: Aβ1-42 (H4-APPsw)
- experiment.description: Aβ1-42 time-resolved fluorescence immunoassay in H4-APPsw cell cultures
- Format: cell-based, human
- stated.conditions: H4-APPsw cultures treated overnight
- Protocol: H4-APPsw cell cultures were maintained on Dulbecco's modified Eagle's medium (DMEM) supplemented with L-glutamine (2 mM), fetal bovine serum (10%), and G418 (100 μg/mL). […] For expression of human presenilin-1 in MEF dKO cells, the full length human presenilin-1 cDNA open reading frame was cloned between the BamHI and XhoI sites of the vector pcDNA5/FRT (Invitrogen), placing presenilin-1 expression under the control of the CMV promoter. […]
pIC50: −log10 of the molar value.
measured.parameter: pIC50

COc1cc(Nc2nc3n(n2)CCCC[C@H]3c2ccc(F)cc2)ccc1-n1cnc(Cl)c1 [BMS-869780] ... 8.29

----------
- experiment.description: Pharmacokinetics in male Sprague-Dawley rats
- Format: in vivo
- stated.conditions: plasma, Rat, IV 1 mg/kg
measured.parameter: half-life (h)

COc1cc(Nc2nc3n(n2)CCCC[C@H]3c2ccc(F)cc2)ccc1-n1cnc(Cl)c1 [BMS-869780] ... 2

----------
- experiment.description: Plasma exposure in rat 4-day oral dosing experiment
- Format: in vivo
- stated.conditions: male, rat, plasma, po, 10 mg/kg, Male, Day 1
measured.parameter: Tmax (h)

COc1cc(Nc2nc3n(n2)CCCC[C@H]3c2ccc(F)cc2)ccc1-n1cnc(Cl)c1 [BMS-869780] ... 5

----------
- experiment.description: Pharmacokinetics in male cynomolgus monkeys
- Format: in vivo
- stated.conditions: cynomolgus monkey, plasma, IV 1 mg/kg, read-out: Vss
measured.parameter: Vd (L/kg)

COc1cc(Nc2nc3n(n2)CCCC[C@H]3c2ccc(F)cc2)ccc1-n1cnc(Cl)c1 [BMS-869780] ... 3.7

----------
- experiment.description: Pharmacokinetics in male beagle dogs
- Assay type: in vivo
- stated.conditions: plasma, Dog, IV 1 mg/kg
measured.parameter: half-life

COc1cc(Nc2nc3n(n2)CCCC[C@H]3c2ccc(F)cc2)ccc1-n1cnc(Cl)c1 ... 5.2 h
